Origin of values: patent US20200087314A1

Tested on: Frataxin (FXN) mRNA expression
Assay: Effect of HDAC inhibitors on frataxin (FXN) mRNA expression in iPSC derived neuronal cells (qRT-PCR)
Assay type: cell-based
Study conditions: iPSC derived neuronal cells differentiated 16 days, compound incubated 24 h
# key: entry, value: Fold Induction

Example cases with answers are listed next.
INSERT INTO measurements (molecule, readout, data_value) VALUES
  ('C[C@@H]1CN(CC(C)(C)O)C[C@H](C)N1Cc1ccc(C(=O)Nc2ccccc2N)cc1', 'Fold Induction', 1.4),
  ('CC(C)(O)CN1CCN(Cc2ccc(C(=O)Nc3ccccc3N)cc2)C(C)(C)C1', 'Fold Induction', 1.2);

Now turn to the next molecule.
Return Fold Induction (reported value) for this molecule: CC1(C)CC(Cc2ccc(C(=O)Nc3ccccc3N)cc2)CCN1CC1CC1 (stereo not drawn)
2.0

* * *

Tested on: Frataxin (FXN) mRNA expression
Assay: Effect of HDAC inhibitors on frataxin (FXN) mRNA expression in iPSC derived neuronal cells (qRT-PCR)
Format: cell-based
Study conditions: iPSC derived neuronal cells differentiated 16 days, compound incubated 24 h
Readout: Fold Induction
Please give only the number in your answer, with no unit.

Example cases with answers are listed next.
INSERT INTO measurements (molecule, test_target, readout, data_value) VALUES
  ('CC1(C)CC(Cc2ccc(C(=O)Nc3ccccc3N)cc2)CCN1 (stereo not shown) [Compound 359]', 'Frataxin (FXN) mRNA expression', 'Fold Induction', 1.9),
  ('CC(C)(O)CN1CCC(Cc2ccc(C(=O)Nc3ccccc3N)cc2)CC1(C)C (stereo not shown) [Compound 357]', 'Frataxin (FXN) mRNA expression', 'Fold Induction', 1.7),
  ('Nc1ccccc1NC(=O)c1ccc(CN2CCC3(CC2)COC3)cc1 [Compound 175]', 'Frataxin (FXN) mRNA expression', 'Fold Induction', 1.5),
  ('Nc1cc(F)ccc1NC(=O)c1ccc(CC2CN(CC3CC3)C2)cc1 [Compound 169]', 'Frataxin (FXN) mRNA expression', 'Fold Induction', 1.3),
  ('C[C@@H]1CN(CC2CC2)C[C@H](C)N1Cc1ccc(C(=O)Nc2ccccc2N)cc1 [Compound 489]', 'Frataxin (FXN) mRNA expression', 'Fold Induction', 1.5);

Return Fold Induction (reported value) for this molecule: CC1(C)CN(Cc2ccc(C(=O)Nc3ccccc3N)cc2)CCN1CC1CC1 [Compound 483]
1.7

Return Fold Induction (reported value) for this molecule: CC(C)(O)CC1CCN(Cc2ccc(C(=O)Nc3ccccc3N)cc2)CC1 [Compound 181]
1.5

Return Fold Induction (reported value) for this molecule: Nc1ccccc1NC(=O)c1ccc(CC2CCN(CC3CC3)C2)cc1 (stereo not shown) [Compound 555]
1.11

Return Fold Induction (reported value) for this molecule: Nc1ccccc1NC(=O)c1ccc(CC2CCN(CC34CC5CC(CC(C5)C3)C4)CC2)cc1 [Compound 354]
1.9

Return Fold Induction (reported value) for this molecule: Nc1ccccc1NC(=O)c1ccc(CN2CC3(CNC3)C2)cc1 [Compound 241]
1.9

Return Fold Induction (reported value) for this molecule: C[C@@H]1CN(Cc2ccc(C(=O)Nc3ccccc3N)cc2)[C@@H](C)CN1CC(C)(C)O (racemic) [Compound 478]
2.1

Return Fold Induction (reported value) for this molecule: Nc1ccccc1NC(=O)c1ccc(CN2CC3(C2)CN(CC2CC2)C3)cc1 [Compound 238]
1.5

Return Fold Induction (reported value) for this molecule: Cl.Cl.Nc1ccccc1NC(=O)c1ccc(CN2CCC3(CCCCC3)CC2)cc1 [Compound 174]
1.1

Return Fold Induction (reported value) for this molecule: C[C@@H]1CN(Cc2ccc(C(=O)Nc3ccccc3N)cc2)CCN1CC1CC1 [Compound 479]
2.2
